src = patent EP4737449A1

- Measured on: p53-Y220C mutant protein (Homo sapiens, UniProt P04637, Y220C)
- Construct: The recombinant Y220C p53 DBD protein with his-tag
- Assay name: In vitro DNA binding activity assay (TR-FRET)
- Type: biochemical
- Measurement conditions: concentration required to increase the binding activity of protein to DNA by 50%
Observable: SC150 (nM)

>>> result_value("CN1CC[C@@H](Nc2cccc3c(CC(F)(F)F)c(C#CCNC(=O)c4cn(CC5CCCC5)nc4N)nn23)[C@@H](F)C1")
12
>>> result_value("CN1CC[C@@H](Nc2cccc3c(CC(F)(F)F)c(C#CCNC(=O)C4CC4)nn23)[C@@H](F)C1")
22

a = CC(C)Cn1ncc(C(=O)NCC#Cc2nn3c(N[C@@H]4CCN(C)C[C@@H]4F)cccc3c2CC(F)(F)F)c1N
b = CN1CCCC(Nc2cccc3c(CC(F)(F)F)c(C#CCNC(=O)c4cnn(C(C)(C)C)c4N)nn23)CC1 (single isomer, unassigned) [Compound 369-B]
c = CN1CC[C@@H](Nc2cccc3c(CC(F)(F)F)c(C#CCNC(=O)c4cnn(C(F)(F)F)c4)nn23)[C@@H](F)C1
d = CN1CC[C@@H](Nc2cccc3c(CC(F)(F)F)c(C#CCNC(=O)c4cn(C(C)(C)C)cn4)nn23)[C@@H](F)C1
Task: # rank_down: sort by SC150, max first Answer by naming the labels in the order asked.
Output: c, d, a, b

###

- Measured on: UniProt P08684
- Assay name: CYP3A4 inhibition experiment in human liver microsomes
- Measurement conditions: CYP 3A4T IC50, human liver microsomes, testosterone as substrate
Observable: pIC50
FYI, pIC50 means -log10 of a concentration in mol per litre.

Field: example entries. Status: answers known.
>>> result_value("CCn1ccc(C(=O)NCC#Cc2nn3c(N[C@@H]4CCN(C)C[C@@H]4F)cccc3c2CC(F)(F)F)c1")
4.80
>>> result_value("CN1CC[C@@H](Nc2cccc3c(CC(F)(F)F)c(C#CCNC(=O)c4ncn(C(C)(C)C)c4N)nn23)[C@@H](F)C1")
4.74
>>> result_value("CNC(=O)c1ccc(NCC#Cc2cc3c(N[C@@H]4CCN(C)C[C@@H]4F)cccc3n2CC(F)(F)F)c(OC)c1 [Control compound, reference compound]")
5.37

Task: Looking for the measured pIC50 of `CCn1ncc(C(=O)NCC#Cc2nn3c(N[C@@H]4CCN(C)C[C@@H]4F)cccc3c2CC(F)(F)F)c1N` , can you help?
Output: 5.13

Task: So what's the measured pIC50 for this one? `CCC(C)(C)n1ncc(C(=O)NCC#Cc2nn3c(N[C@@H]4CCN(C)C[C@@H]4F)cccc3c2CC(F)(F)F)c1N`
Output: 4.66

###

Documented Percentage relative to positive control across a set of molecules
- Measured on: PXR (Homo sapiens)
- Construct: expressed in transfected cells; host or cells: DPX2 cells
- Assay name: PXR activity test in DPX2 cells (luciferase)
- Assay type: cell-based
- Measurement conditions: Concentration 10 (µM per method); positive control rifampicin
- Source text: […]
Only the number, expressed in %, is required.

Past entries and their recorded results:
>>> result_value("CNC(=O)c1ccc(NCC#Cc2cc3c(N[C@@H]4CCN(C)C[C@@H]4F)cccc3n2CC(F)(F)F)c(OC)c1 [Control compound, reference compound]")
52.82
>>> result_value("CN1CC[C@@H](Nc2cccc3c(CC(F)(F)F)c(C#CCNC(=O)c4cnn(C(C)(C)C)c4N)nn23)[C@@H](F)C1")
13.47
>>> result_value("CCn1ncc(C(=O)NCC#Cc2nn3c(N[C@@H]4CCN(C)C[C@@H]4F)cccc3c2CC(F)(F)F)c1N")
7.20

Task: Query (molecule): `CN1CC[C@@H](Nc2cccc3c(CC(F)(F)F)c(C#CCNC(=O)c4cnn(C(C)(C)C)c4)nn23)[C@@H](F)C1` ; field requested: Percentage relative to positive control
Output: 17.50

###

- Assay name: Pharmacokinetic study in beagles
- Format: in vivo
- Measurement conditions: beagle, dog, plasma, 2 mg/kg, PO 2mpk
Observable: Tmax (h)
Provide the reading as a plain figure in h.

Task: Value lookup for Tmax; key = CNC(=O)c1ccc(NCC#Cc2cc3c(N[C@@H]4CCN(C)C[C@@H]4F)cccc3n2CC(F)(F)F)c(OC)c1 [Control compound, reference compound]
Output: 4.7

###

- Assay name: Associated plasma PK in the LU5269 xenograft study
- Assay type: in vivo, NOD/SCID mice
- Measurement conditions: mouse, 150 mg/kg; 150mpk, PO, QD*21, plasma after the last administration
Observable: AUC(0-t) (ng·h/mL)
Give the number; ng·h/mL is assumed, so skip it.

Task: Value lookup for AUC(0-t); key = `CN1CC[C@@H](Nc2cccc3c(CC(F)(F)F)c(C#CCNC(=O)c4cnn(C(C)(C)C)c4N)nn23)[C@@H](F)C1`
Output: 68000

###

- Assay name: Pharmacokinetic study in beagles
- Type: in vivo
- Measurement conditions: beagle, dog, plasma, 2 mg/kg, PO 2mpk
Observable: Cmax (ng/mL)
Express it in ng/mL; write the number only.

Task: Quick one: Cmax of CNC(=O)c1ccc(NCC#Cc2cc3c(N[C@@H]4CCN(C)C[C@@H]4F)cccc3n2CC(F)(F)F)c(OC)c1 [Control compound, reference compound] ?
Output: 101

###

- Assay name: Associated plasma PK in the LU5269 xenograft study
- Assay type: in vivo, NOD/SCID mice
- Measurement conditions: mouse, 100 mg/kg; 100 mpk, PO, QD*21, plasma after the last administration
Observable: AUC(0-t) (ng·h/mL)
Form entry: value (ng·h/mL) — number only.

Task: Could you tell me which AUC(0-t) is on file for `CN1CC[C@@H](Nc2cccc3c(CC(F)(F)F)c(C#CCNC(=O)c4cnn(C(C)(C)C)c4N)nn23)[C@@H](F)C1` ?
Output: 39400

###

- Measured on: p53-Y220C mutant protein (Homo sapiens, UniProt P04637, Y220C)
- Construct: The recombinant Y220C p53 DBD protein with his-tag
- Assay name: In vitro DNA binding activity assay (TR-FRET)
- Format: biochemical
- Measurement conditions: concentration required to increase the binding activity of protein to DNA by 50%
- Description: The activity of the compound to modulate the binding of the p53-Y220C mutant protein to DNA was detected using TR-FREt (Time-Resolved Fluorescence Resonance Energy Transfer). […] When exposed to an excitation light with a wavelength of 340 nm, the donor Eu(Europium)-SA(Streptavidin) can emit fluorescence with a wavelength of 615 nm. If the donor and the receptor are close to each other, the donor will transfer part of the energy to the receptor and produce fluorescence with a wavelength of 665 nm. […]
Observable: SC150 (nM)

I = [2H]C([2H])([2H])N1CC[C@@H](Nc2cccc3c(CC(F)(F)F)c(C#CCNC(=O)c4cnn(C(C)(C)C)c4N)nn23)[C@@H](F)C1
II = CC(C)n1ncc(C(=O)NCC#Cc2nn3c(N[C@@H]4CCN(C)C[C@@H]4F)cccc3c2CC(F)(F)F)c1N
Task: Parameter metric = SC150. Return the lower-valued option from I and II . Which one? Tell me its label.
Output: I

###

- Assay name: Pharmacokinetic study in SD rats
- Format: in vivo
- Measurement conditions: rat, plasma, 50 mg/kg, po 50 mpk, read-out: AUC0-24h
Observable: AUC(0-t) (µg·h/mL)
# unit: µg·h/mL | format: bare number

Task: Quick one: AUC(0-t) for CNC(=O)c1ccc(NCC#Cc2cc3c(N[C@@H]4CCN(C)C[C@@H]4F)cccc3n2CC(F)(F)F)c(OC)c1 [Control compound, reference compound] ?
Output: 148

###

- Measured on: CYP 3A4 enzyme in human liver microsomes (Homo sapiens)
- Assay name: CYP3A4 inhibition experiment in human liver microsomes
- Measurement conditions: CYP 3A4T IC50, human liver microsomes, testosterone as substrate
pIC50: −log10 of the molar value.
Observable: pIC50

>>> result_value("CN1CC[C@@H](Nc2cccc3c(CC(F)(F)F)c(C#CCNC(=O)c4cnn(C(C)(C)C)c4)nn23)[C@@H](F)C1")
4.57
>>> result_value("Cc1cc(C(=O)NCC#Cc2nn3c(N[C@@H]4CCN(C)C[C@@H]4F)cccc3c2CC(F)(F)F)co1")
4.89
>>> result_value("CC(n1ncc(C(=O)NCC#Cc2nn3c(N[C@@H]4CCN(C)C[C@@H]4F)cccc3c2CC(F)(F)F)c1N)C(F)(F)F (single isomer, unassigned) [Compound 355A]")
4.85
>>> result_value("COCCn1ccc(C(=O)NCC#Cc2nn3c(N[C@@H]4CCN(C)C[C@@H]4F)cccc3c2CC(F)(F)F)c1")
4.61
>>> result_value("CN1CC[C@@H](Nc2cccc3c(CC(F)(F)F)c(C#CCNC(=O)c4cnn(C5(C)CC5)c4N)nn23)[C@@H](F)C1")
4.79
>>> result_value("CN1CC[C@@H](Nc2cccc3c(CC(F)(F)F)c(C#CCNC(=O)c4cnn(C(C)(C)C)c4N)nn23)[C@@H](F)C1")
4.76
>>> result_value("CN1CC[C@@H](Nc2cccc3c(CC(F)(F)F)c(C#CCNC(=O)c4cnn5c4CC(C)(C)C5)nn23)[C@@H](F)C1")
4.98
>>> result_value("CN1CC[C@@H](Nc2cccc3c(CC(F)(F)F)c(C#CCNC(=O)c4cnn(C56CC(C5)C6)c4N)nn23)[C@@H](F)C1")
4.88
